Listing of entries alongside the reported solubility.
method description: Compound was tested for its solubility in water
Assay type: ADME
measurement context: read-out: S

INSERT INTO results (compound, measured_metric, obs_value) VALUES
  ('CNCC(=O)Oc1c(C)c(C)c2c(c1C)CC(CCn1ccc(=O)c(O)c1C)O2 (stereo not given)', 'solubility', '> 20000 µg/mL'),
  ('Cc1c(O)c(=O)ccn1CCCc1cc(C(C)(C)C)c(O)c(C(C)(C)C)c1', 'solubility', '< 100 µg/mL'),
  ('Cc1c(OC(=O)c2ccc(N)cc2)c(=O)ccn1CCCc1cc(C(C)(C)C)c(O)c(C(C)(C)C)c1', 'solubility', '< 100 µg/mL');

Any idea what solubility was measured for Cc1c(C)c2c(c(C)c1OC(=O)c1ccc(N)cc1)CC(CCn1ccc(=O)c(O)c1C)O2 (stereo not given) ?
< 100 µg/mL

Any idea what solubility was measured for "Cc1c(OC(=O)CCN)c(=O)ccn1CCCc1cc(C(C)(C)C)c(O)c(C(C)(C)C)c1" ?
> 20000 µg/mL

These entries and their values trace back to ChEMBL document CHEMBL1134968.
